measurementProtocol: log P by reversed-phase HPLC analogously to OECD Guideline 117
Format: physicochemical
runConditions: reversed-phase C18 HPLC column, pH 7.8, table column; [b] neutral range, pH 7.8, ammonium hydrogencarbonate/acetonitrile; read-out: LogP[b]
assayEndpoint: chromatographic logP

>>> measuredvalue("CCn1c(=O)ccn(-c2cc(SCC(F)(F)F)c(C)cc2F)c1=O")
2.93
>>> measuredvalue("Cc1cc(F)c(-n2ccc(=O)n(C)c2=O)cc1SCC(F)(F)F")
2.59
>>> measuredvalue("Cc1cc(F)c(-n2ncc(=O)n(C)c2=O)cc1[S+]([O-])CC(F)(F)F (single isomer, unassigned; (-))")
1.9
>>> measuredvalue("Cc1ccc(-n2ccc(=O)n(C)c2=O)cc1[S+]([O-])CC(F)(F)F (centres unmarked)")
1.5
>>> measuredvalue("Cc1cc(F)c(-n2ccc(=O)n(C)c2=O)cc1[S+]([O-])CC(F)(F)F (centres unmarked)")
1.66
>>> measuredvalue("CCc1cc(CC)c([S+]([O-])CC(F)(F)F)cc1-n1c(C)c(C#N)c(=O)[nH]c1=O (centres unmarked)")
1.55
>>> measuredvalue("Cc1cc(F)c(-n2ccc(=O)[nH]c2=O)cc1SCC(F)(F)F")
2.13
>>> measuredvalue("CCn1c(=O)ccn(-c2cc([S+]([O-])CC(F)(F)F)c(C)cc2F)c1=O (centres unmarked)")
1.94
